Consider the following binders; for each one, report its IC50 chromogenic.
Molecular target: T1, rat PAI-1 (rat, UniProt P20961 24-402)
T1 sequence: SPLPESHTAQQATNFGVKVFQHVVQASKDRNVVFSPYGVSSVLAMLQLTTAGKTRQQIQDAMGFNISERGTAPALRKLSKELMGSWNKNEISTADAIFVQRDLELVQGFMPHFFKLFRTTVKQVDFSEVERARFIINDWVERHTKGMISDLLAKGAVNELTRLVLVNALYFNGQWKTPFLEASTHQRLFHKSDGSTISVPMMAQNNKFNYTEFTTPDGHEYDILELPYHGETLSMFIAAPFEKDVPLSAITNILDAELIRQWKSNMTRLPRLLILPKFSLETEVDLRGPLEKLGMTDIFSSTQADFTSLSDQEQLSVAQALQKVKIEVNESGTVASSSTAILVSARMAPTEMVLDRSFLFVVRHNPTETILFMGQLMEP
Test: cell-based or functional assay
Respond numerically; units are nM and should not be typed.

Prompt line: Find the recorded IC50 chromogenic belonging to Antibody 21, scFv (scFv, V domains shown) VH: PVQLQQSGAEVKKPGSSVKVSCKASGGTFSSYAISWVRQAPGQGLEWMGGIIPTFGTANYAQKFQGRVTITADESTSTAYMELSGLRSEDTAVYYCAREKRQWLEGHFDYWGRGTPVTVSS VL: DIQMAQSPSFLSASIGDRVTITCRASEGIYHNLAWYQQKPGKAPKLLIYRASSLASGAPSRFSGSGSGTDFTLTISSLQPDDFATYYCQQYSNYPLTFGGGTKLEIK and report it.
Response line: 49.2

Prompt line: I'd like to know its IC50 chromogenic. The binder in question is Antibody 14, scFv (scFv, V domains shown) VH: QVQLQQSGAEVKKPGSSVKVSCKASGGTFSSYAISWVRQAPGQGLEWMGGIIPTFGTANYAQKFQGRVTITADESTSTAYMELSGLRSEDTAVYYCAREKRQWLEGHFDYWGRGTLVTVSS VL: DIQMTQSPSFLSASIGDRVTITCRASEGIYHNLAWYQQKPGKAPKLLIYRASSLASGAPSRFSGSGSGTDFTFTISSLQPDDFATYYCQQYSNYPLTFGGGTKLEIK
Response line: 23.1

Prompt line: Can you share its IC50 chromogenic? I mean this binder: Antibody 24, scFv (scFv, V domains shown) VH: QVQLQQSGAEVKKPGSSVKVSCKASGGTFSSYAISWVRQAPGQGLEWMGGIIPTFVTANYAQKFQGRVSITADESTSTAYMELSGLRSEDTAVYYCAREKRQWLEGHFDYWGRGTPVTVSS VL: DIQMTQSPSFLSASIGDRVTITCRASEGIYHALAWYQQKPGKAPKLLIYRASSLASGAPSRFSGSGSGTDFTLTISSLQPDDFATYYCQQYSNYPLTFGGGTKLEIK
Response line: 127
